# Test system: UACC-62 melanoma
# method: NCI-60 one-dose screen, 48 h (100 = growth as untreated, 0 = no growth, -100 = all killed)
# testContext: 10 µM unless noted
Compounds without any hit were thinned out: in the full panel of roughly 83,000, 20% have a hit. Active and inactive are the calls of the source. The calls were made as follows: active = growth percent below 10; inactive = the rest.
assayReadout: growth

[[record]]
compound = "CC(C)=CCC[C@](C)(O)C1CC[C@]2(C)[C@@H]1CC[C@@H]1[C@@]3(C)CC/C(=N\\OCCC#N)C(C)(C)[C@@H]3CC[C@]12C (some centres undefined)"
targetdesc = "UACC-62 melanoma"
measvalue = "68.9% (inactive)"

[[record]]
compound = "C=C1/C(=C\\C=C2/CCC[C@]3(C)[C@@H]([C@H](C)CCCC(C)(C)O)CC[C@@H]23)C[C@@H](OC(=O)CBr)C[C@@H]1O"
targetdesc = "UACC-62 melanoma"
measvalue = "69% (inactive)"


Give the reported value of growth for this record: CC1OC(C(=O)N2CCN(CCO)CC2)CC1COC1CCCCC1 (centres undefined)
87.7% [50 µM] (inactive)

Give the reported value of growth for this record: O=C(/C=C/c1ccc(Cl)cc1)c1ccc(-n2cc(CN3CCN(c4cc5c(cc4F)c(=O)c(C(=O)O)cn5C4CC4)CC3)nn2)cc1
74.6% (inactive)

Give the reported value of growth for this record: CCCCCCC/C=N/NC(=O)c1ccc(-n2cc(-c3ccccc3)nn2)cc1
61.9% (inactive)

###

# Tested on: PC-3 prostate
# method: NCI-60 one-dose screen, 48 h
# testContext: 10 µM unless noted
About 83,000 compounds went through this panel and 20% of them were active in at least one assay; those are over-represented in the sample as a whole. Calls of active or inactive are those of the source. How the source made its calls: active means growth percent below 10; inactive means the rest.
Thanks in advance; please answer with one of these: 1.0 (active), 0.0 (inactive)

[[record]]
compound = "O=C1c2cccnc2C(=O)c2c1c(C(=O)OCCCN1CCOCC1)c1ccccn21"
group = 1.0


# next compound below
Could you kindly confirm the outcome this assay logged for Cc1[nH]c(C(=O)Nc2ccc(C(N)=O)cc2OC(C)C)c(Cl)c1Cl ?
0.0

###

# System: NCI-H322M lung
# method: NCI-60 one-dose screen, 48 h (100 = growth as untreated, 0 = no growth, -100 = all killed)
# testContext: 10 µM unless noted
The panel holds about 83,000 compounds, 20% with a hit somewhere; the sample as a whole holds those more often.
Each entry below carries its reported growth.
Expressed in %, but write only the number.

Check out these entries, answers already filled in.
[[record]]
compound = "COc1ccc(/C=N\\NC(=O)c2ccc3nc(-c4ccc(Cl)cc4)[nH]c3c2)cc1"
assayreadout = "growth"
measvalue = 55.9

[[record]]
compound = "Cc1csc(Nc2nc(-c3cccc(Cl)c3)nc(C(Cl)(Cl)Cl)n2)n1"
assayreadout = "growth"
measvalue = -23.1

[[record]]
compound = "C=C(C)[C@@H]1CC[C@]2(COC(=O)c3cccnc3)CC[C@]3(C)[C@H](CC[C@@H]4[C@@]5(C)CCCN(C(=O)c6cccnc6)C(C)(C)[C@@H]5CC[C@]43C)[C@@H]12"
assayreadout = "growth"
measvalue = 65.6

[[record]]
compound = "CCOC(=O)CC1CSC(N/N=C/c2ccc(O)cc2)=N1 (stereo not given)"
assayreadout = "growth"
measvalue = 98.6


Moving on to the next compound.
Give the reported value of growth for this record: Cc1c2cnccc2c(C)c2c1c1cc(C(=O)O)ccc1n2C
-1.54
